Values compiled from patent US20250345392A1.

- assay_protocol: Clinical test in humans, three 30-min i.v. infusions 8 hours apart, plasma PK
- Format: in vivo
- condition_label: human, in vivo, iv, 50 ug/kg, three 30-min i.v. infusions 8 h apart, 50 μg/kg each, GM, read-out: AUC0-24
Ends that are not written are not given here.
measurement_kind: AUC(0-t) (ng·h/mL)

- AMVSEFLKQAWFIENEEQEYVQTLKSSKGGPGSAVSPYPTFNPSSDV-NH2 [Peptide 1]: 1560

====

- assay_protocol: Clinical test in humans, single 30-min i.v. infusion, plasma PK
- Type: in vivo
- condition_label: human, in vivo, iv, single 30-min i.v. infusion 100 μg/kg, GM
Ends that are not written are not given here.
measurement_kind: Vd (L/kg)

• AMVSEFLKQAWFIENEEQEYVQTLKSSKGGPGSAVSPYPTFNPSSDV-NH2 [Peptide 1] = 0.15
